meta.source: patent US12479791B2

Run description: Analysis of Col1a1 siRNA + FVII siRNA-encapsulated lipid nanoparticle (Production Example 3)
Assay type: physicochemical
Measurement setup: Col1a1 siRNA + FVII siRNA lipid nanoparticle; cationic lipid:DPPC:cholesterol:GS-020=60:10.6:28:1.4

Compound	Unit symbol	Particle size
CCCCCCCCCC(=O)OCC(COC(=O)CCCCCCCCC)(COC(=O)CCCCN(C)C)COC(=O)CCC(CCCC)C(CCCC)CCCC (stereo not shown) [Example 14]	nm	97
CCCCCCCC(=O)OCC(COC(=O)CCCCCCC)(COC(=O)CCCCN(C)C)COC(=O)CCC(CCCC)C(CCCC)CCCC (stereo not shown) [Example 10]	nm	101
CCCCCCCC(=O)OCC(COC(=O)CCCCCCC)(COC(=O)CCCN(C)C)COC(=O)CCC(CCCC)C(CCCC)CCCC (stereo not shown) [Example 19]	nm	89
CCCCCCCC(=O)OCC(COC(=O)CCCCCCC)(COC(=O)CCCCN(C)C)COC(=O)CCC(CCCCCCC)CCCCCCC [Example 1]	nm	111
CCCCCCCC(=O)OCC(COC(=O)CCCCCCC)(COC(=O)CCCCN(C)C)COC(=O)CCC(CCCCC)C(CCCCC)CCCCC (stereo not shown) [Example 13]	nm	103
CCCCCCCCCC(=O)OCC(COC(=O)CCCCCCCCC)(COC(=O)CCCCN(C)C)COC(=O)CCC(CCC)C(CCC)CCC (stereo not shown) [Example 16]	nm	103
CCCCCCCC(=O)OCC(COC(=O)CCCCCCC)(COC(=O)CCCCCN(C)C)COC(=O)CCC(CCCC)C(CCCC)CCCC (stereo not shown) [Example 11]	nm	91

----------
Run description: Analysis of luciferase mRNA-encapsulated lipid nanoparticle (Production Example 2)
Format: physicochemical
Measurement setup: luciferase mRNA lipid nanoparticle; cationic lipid:DPPC:cholesterol:GS-020=60:10.6:28:1.4

Compound	Average particle size
CCCCCCCCCC(=O)OCC(COC(=O)CCCCCCCCC)(COC(=O)CCCCN(C)C)COC(=O)CCC(CCCC)C(CCCC)CCCC (stereo not shown) [Example 14]	88 nm
CCCCCCCC(=O)OCC(COC(=O)CCCCCN(C)C)(COC(=O)C(CCCCCC)CCCCCC)COC(=O)C(CCCCCC)CCCCCC [Example 8]	103 nm
CCCCCCCCCC(=O)OCC(COC(=O)CCCCCCCCC)(COC(=O)CCCCN(C)C)COC(=O)CCC(CCC)C(CCC)CCC (stereo not shown) [Example 16]	109 nm
CCCCCCCC(=O)OCC(COC(=O)CCCCN(C)C)(COC(=O)CC(CCCCC)CCCCC)COC(=O)CC(CCCCC)CCCCC [Example 9]	96 nm
CCCCCCCC(=O)OCC(COC(=O)CCCCCCC)(COC(=O)CCCCCN(C)C)COC(=O)CCC(CCCC)C(CCCC)CCCC (stereo not shown) [Example 11]	122 nm
CCCCCCCC(=O)OCC(COC(=O)CCCCCCC)(COC(=O)CCCCN(C)C)COC(=O)CCC(CCC)C(CCC)CCC (stereo not shown) [Example 17]	152 nm
CCCCCCCC(=O)OCC(COC(=O)CCCCCCC)(COC(=O)CCCCN(C)C)COC(=O)CCC(CCCC)C(CCCC)CCCC (stereo not shown) [Example 10]	123 nm

----------
Run description: Analysis of Col1a1 siRNA + FVII siRNA-encapsulated lipid nanoparticle (Production Example 3)
Assay type: physicochemical
Measurement setup: lipid nanoparticle dispersion after dialysis and filtration

Compound	Unit symbol	Col1a1 siRNA + FVII siRNA concentration
CCCCCCCC(=O)OCC(COC(=O)CCCCCCC)(COC(=O)CCCCCN(C)C)COC(=O)CCC(CCCC)C(CCCC)CCCC (stereo not shown) [Example 11]	µg/mL	320
CCCCCCCC(=O)OCC(COC(=O)CCCCCCC)(COC(=O)CCCCN(C)C)COC(=O)CCC(CCCCCCC)CCCCCCC [Example 1]	µg/mL	128
CCCCCCCC(=O)OCC(COC(=O)CCCCCCC)(COC(=O)CCCN(C)C)COC(=O)CCC(CCCC)C(CCCC)CCCC (stereo not shown) [Example 19]	µg/mL	112
CCCCCCCCCC(=O)OCC(COC(=O)CCCCCCCCC)(COC(=O)CCCCN(C)C)COC(=O)CCC(CCCC)C(CCCC)CCCC (stereo not shown) [Example 14]	µg/mL	126
CCCCCCCC(=O)OCC(COC(=O)CCCCCCC)(COC(=O)CCCCN(C)C)COC(=O)CCC(CCCC)C(CCCC)CCCC (stereo not shown) [Example 10]	µg/mL	137
CCCCCCCC(=O)OCC(COC(=O)CCCCCCC)(COC(=O)CCCCN(C)C)COC(=O)CCC(CCCCC)C(CCCCC)CCCCC (stereo not shown) [Example 13]	µg/mL	122
CCCCCCCCCC(=O)OCC(COC(=O)CCCCCCCCC)(COC(=O)CCCCN(C)C)COC(=O)CCC(CCC)C(CCC)CCC (stereo not shown) [Example 16]	µg/mL	124

----------
System: human colorectal cancer-derived cell line HCT116
Run description: Transfection of cultured cell with mRNA (luciferase luminescence)
Format: cell-based
Measurement setup: 10 ng luciferase mRNA, 24 hours, Table 10 (PBS control 293)

Compound	System	Average luminescence (cps) of 3 wells
CCCCCCCCCC(=O)OCC(COC(=O)CCCCCCCCC)(COC(=O)CCCCN(C)C)COC(=O)CCC(CCC)C(CCC)CCC (stereo not shown)	human colorectal cancer-derived cell line HCT116	141560
CCCCCC(=O)OCC(COC(=O)CCCCC)(COC(=O)CCCCN(C)C)COC(=O)CCC(CCCC)C(CCCC)CCCC (stereo not shown)	human colorectal cancer-derived cell line HCT116	3293
CCCCCCCC(=O)OCC(COC(=O)CCCCCCC)(COC(=O)CCCCN(C)C)COC(=O)CCC(CCC)C(CCC)CCC (stereo not shown)	human colorectal cancer-derived cell line HCT116	7987
CCCCCCCCCC(=O)OCC(COC(=O)CCCCCCCCC)(COC(=O)CCCCN(C)C)COC(=O)CCC(CCCC)C(CCCC)CCCC (stereo not shown)	human colorectal cancer-derived cell line HCT116	178133
CCCCCCCC(=O)OCC(COC(=O)CCCCCCC)(COC(=O)CCCCN(C)C)COC(=O)CCC(CCCC)C(CCCC)CCCC (stereo not shown)	human colorectal cancer-derived cell line HCT116	112893
CCCCCCCC(=O)OCC(COC(=O)CCCCCCC)(COC(=O)CCC(CCCC)C(CCCC)CCCC)COC(=O)NCCCCN(C)C (stereo not shown)	human colorectal cancer-derived cell line HCT116	12813
CCCCCCCC(=O)OCC(COC(=O)CCCCCCC)(COC(=O)CCCCN(C)C)COC(=O)CCC(CCCCCCC)CCCCCCC	human colorectal cancer-derived cell line HCT116	110733

----------
Run description: Analysis of luciferase siRNA-encapsulated lipid nanoparticle (Production Example 1)
Format: physicochemical
Measurement setup: luc siRNA lipid nanoparticle dispersion after dialysis and filtration
Let's look at some compounds and their measured siRNA concentration.

Compound	siRNA concentration
CCCCCCCC(=O)OCC(COC(=O)CCCCCCC)(COC(=O)CCCN(C)C)COC(=O)C(CCCCCC)CCCCCC [Example 2]	415 µg/mL
CCCCCCC(=O)OCC(COC(=O)CCCCN(C)C)(COC(=O)C(CCCCC)CCCCC)COC(=O)C(CCCCC)CCCCC [Example 5]	120 µg/mL
CCCCCCCC(=O)OCC(COC(=O)CCCCN(C)C)(COC(=O)C(CCCCCC)CCCCCC)COC(=O)C(CCCCCC)CCCCCC [Example 7]	376 µg/mL
CCCCCCC(=O)OCC(COC(=O)CCCN(C)C)(COC(=O)C(CCCCC)CCCCC)COC(=O)C(CCCCC)CCCCC [Example 4]	121 µg/mL
CCCCCCCC(=O)OCC(COC(=O)CCCCCCC)(COC(=O)CCCCN(C)C)COC(=O)C(CCCCCC)CCCCCC [Example 3]	445 µg/mL
CCCCCCCC(=O)OCC(COC(=O)CCCN(C)C)(COC(=O)C(CCCCCC)CCCCCC)COC(=O)C(CCCCCC)CCCCCC [Example 6]	389 µg/mL

----------
Run description: Analysis of luciferase mRNA-encapsulated lipid nanoparticle (Production Example 2)
Type: physicochemical
Measurement setup: luciferase mRNA lipid nanoparticle

Compound	Rate of encapsulation [%]
CCCCCCCC(=O)OCC(COC(=O)CCCCCCC)(COC(=O)CCCCN(C)C)COC(=O)CCC(CCCCC)C(CCCCC)CCCCC (stereo not drawn) [Example 13]	99
CCCCCCCC(=O)OCC(COC(=O)CCCCCCC)(COC(=O)CCCCN(C)C)COC(=O)CCC(CCC)C(CCC)CCC (stereo not drawn) [Example 17]	87
CCCCCCCC(=O)OCC(COC(=O)CCCCCCC)(COC(=O)CCCCN(C)C)COC(=O)CCC(CCCC)C(CCCC)CCCC (stereo not drawn) [Example 10]	96
CCCCCCCC(=O)OCC(COC(=O)CCCCCN(C)C)(COC(=O)C(CCCCCC)CCCCCC)COC(=O)C(CCCCCC)CCCCCC [Example 8]	91
CCCCCC(=O)OCC(COC(=O)CCCCC)(COC(=O)CCCCN(C)C)COC(=O)CCC(CCCCC)C(CCCCC)CCCCC (stereo not drawn) [Example 12]	93
CCCCCCCCCC(=O)OCC(COC(=O)CCCCCCCCC)(COC(=O)CCCCN(C)C)COC(=O)CCC(CCC)C(CCC)CCC (stereo not drawn) [Example 16]	94
CCCCCCCC(=O)OCC(COC(=O)CCCCCCC)(COC(=O)CCCCCN(C)C)COC(=O)CCC(CCCC)C(CCCC)CCCC (stereo not drawn) [Example 11]	93
CCCCCCCC(=O)OCC(COC(=O)CCCCCCC)(COC(=O)CCCCN(C)C)COC(=O)CCC(CCCCCCC)CCCCCCC [Example 1]	96
CCCCCCCC(=O)OCC(COC(=O)CCCCCCC)(COC(=O)CCC(CCCC)C(CCCC)CCCC)COC(=O)NCCCCN(C)C (stereo not drawn) [Example 18]	99
CCCCCC(=O)OCC(COC(=O)CCCCC)(COC(=O)CCCCN(C)C)COC(=O)CCC(CCCC)C(CCCC)CCCC (stereo not drawn) [Example 15]	99
CCCCCCCC(=O)OCC(COC(=O)CCCCN(C)C)(COC(=O)CC(CCCCC)CCCCC)COC(=O)CC(CCCCC)CCCCC [Example 9]	94
CCCCCCCCCC(=O)OCC(COC(=O)CCCCCCCCC)(COC(=O)CCCCN(C)C)COC(=O)CCC(CCCC)C(CCCC)CCCC (stereo not drawn) [Example 14]	94
